Test system: up to 32 different microorganisms
Test: in vitro antibacterial activity (MIC), agar dilution on Brain Heart Infusion (BHI) agar with Steers replicator
Assay type: cell-based
Conditions: organism code KK; unit assumed
// MIC lookup, one value per entry
The response must be a number in µg/mL with no trailing unit.

CCC1OC(=O)C(C)C(=O)C(C)C(OC2OC(C)CC(N(C)C)C2O)C(C)(OCC=Cc2ccc3ccccc3n2)CC(C)C(=O)C(C)C2NC(=O)OC12C (stereo not drawn) [Example 212, R is —CH2CH═CH-(2-quinolyl)] : 0.1

Retrieve MIC measured for CCC1OC(=O)C(C)C(=O)C(C)C(OC2OC(C)CC(N(C)C)C2O)C(C)(OCC=Cc2ccc3cc(OCCBr)ccc3c2)CC(C)C(=O)C(C)C2NC(=O)OC12C (stereo not drawn) [Example 288] and print it.
0.02

Retrieve MIC measured for CC[C@H]1OC(=O)[C@H](C)C(=O)[C@H](C)[C@@H](O[C@@H]2O[C@H](C)C[C@H](N(C)C)[C@H]2O)[C@@](C)(OCC#Cc2ccc3ncccc3c2)C[C@@H](C)C(=O)[C@H](C)[C@H]2NC(=O)O[C@@]21C [Example 254] and print it.
0.01

---

Test system: up to 32 different microorganisms
Assay: in vitro antibacterial activity (MIC), agar dilution on Brain Heart Infusion (BHI) agar with Steers replicator
Type: cell-based
Settings: organism code KK; unit assumed
endpoint label: MIC (µg/mL)
The response must be a number in µg/mL with no trailing unit.

CCC1OC(=O)C(C)C(=O)C(C)C(OC2OC(C)CC(N(C)C)C2O)C(C)(OCC=Cc2cccc(-c3ccccc3)c2)CC(C)C(=O)C(C)C2NC(=O)OC12C (stereo not shown) : 0.05

Retrieve MIC measured for CCC1OC(=O)C(C)C(=O)C(C)C(OC2OC(C)CC(N(C)C)C2O)C(C)(OCC=Cc2ccc3cc(O)ccc3c2)CC(C)C(=O)C(C)C2NC(=O)OC12C (stereo not shown) and print it.
0.02

Retrieve MIC measured for CCC1OC(=O)C(C)C(=O)C(C)C(OC2OC(C)CC(N(C)C)C2O)C(C)(OCC=Cc2cnc3ccc(NC(C)=O)cc3c2)CC(C)C(=O)C(C)C2NC(=O)OC12C (stereo not shown) and print it.
0.01

Retrieve MIC measured for "CC[C@H]1OC(=O)[C@H](C)C(=O)[C@H](C)[C@@H](O[C@@H]2O[C@H](C)C[C@H](N(C)C)[C@H]2O)[C@@](C)(OCC=Cc2cnc3ccccc3c2)C[C@@H](C)C(=O)[C@H](C)[C@H]2N(N)C(=O)O[C@]12C" and print it.
0.02

Retrieve MIC measured for CCC1OC(=O)C(C)C(=O)C(C)C(OC2OC(C)CC(N(C)C)C2O)C(C)(OCC=Cc2cnc3ccc(N)cc3c2)CC(C)C(=O)C(C)C2NC(=O)OC12C (stereo not shown) and print it.
0.01

Retrieve MIC measured for CCC1OC(=O)C(C)C(=O)C(C)C(OC2OC(C)CC(N(C)C)C2O)C(C)(OCC=Cc2cccc3c([N+](=O)[O-])cccc23)CC(C)C(=O)C(C)C2NC(=O)OC12C (stereo not shown) and print it.
0.1

---

System: up to 32 different microorganisms
Experiment: in vitro antibacterial activity (MIC), agar dilution on Brain Heart Infusion (BHI) agar with Steers replicator
Type: cell-based
Details: Streptococcus agalactiae CMX 508 (code KK); unit assumed
endpoint label: MIC

Some molecules with known MIC results, for comparison:
CC[C@H]1OC(=O)[C@H](C)C(=O)[C@H](C)[C@@H](O[C@@H]2O[C@H](C)C[C@H](N(C)C)[C@H]2O)[C@@](C)(OCC=Cc2cnc3ccccc3c2)C[C@@H](C)C(=O)[C@H](C)[C@H]2OC(=O)O[C@@]21C [Example 75] : 0.01 µg/mL
CCC1OC(=O)C(C)C(=O)C(C)C(OC2OC(C)CC(N(C)C)C2O)C(C)(OCC=Cc2ccc3nc(C)ccc3c2)CC(C)C(=O)C(C)C2NC(=O)OC12C (stereo not shown) [Example 197, R is —CH2CH═CH-(2-methyl-6-quinolyl)] : ≤ 0.005 µg/mL
CC[C@H]1OC(=O)[C@H](C)C(=O)[C@H](C)[C@@H](O[C@@H]2O[C@H](C)C[C@H](N(C)C)[C@H]2O)[C@@](C)(OCc2ccc3ccccc3c2)C[C@@H](C)C(=O)[C@H](C)[C@H]2NC(=O)O[C@@]21C [Example 176] : 0.05 µg/mL
CC[C@H]1OC(=O)[C@H](C)C(=O)[C@H](C)[C@@H](O[C@@H]2O[C@H](C)C[C@H](N(C)C)[C@H]2O)[C@@](C)(OCC=Cc2ccc(Cl)cc2)C[C@@H](C)C(=O)[C@H](C)[C@@H](O)[C@]1(C)O [Example 17] : 0.78 µg/mL
CCC1OC(=O)C(C)C(=O)C(C)C(OC2OC(C)CC(N(C)C)C2O)C(C)(OCC=Cc2cnc3ccc([N+](=O)[O-])cc3c2)CC(C)C(=O)C(C)C2NC(=O)OC12C (stereo not shown) [Example 195, R is —CH2CH═CH-(6-nitroquinolyl)] : 0.05 µg/mL
C=CCO[C@@]1(C)C[C@@H](C)C(=O)[C@H](C)[C@H]2OC(=O)O[C@]2(C)[C@@H](CC)OC(=O)[C@H](C)C(=O)[C@H](C)[C@H]1O[C@@H]1O[C@H](C)C[C@H](N(C)C)[C@H]1O [Example 71] : 0.2 µg/mL
CCC1OC(=O)C(C)C(=O)C(C)C(OC2OC(C)CC(N(C)C)C2O)C(C)(OCC=Cc2cnc3ccc(Cl)cc3c2)CC(C)C(=O)C(C)C2NC(=O)OC12C (stereo not shown) [Example 191, R is —CH2CH═CH-(6-chloro-3-quinolyl)] : 0.05 µg/mL
CCC1OC(=O)C(C)C(=O)C(C)C(OC2OC(C)CC(N(C)C)C2O)C(C)(OCC=Cc2cncc3ccccc23)CC(C)C(=O)C(C)C2NC(=O)OC12C (stereo not shown) [Example 187, R is —CH2CH═CH-(4-isoquinolinyl)] : 0.02 µg/mL

Retrieve MIC measured for C=CCOC1(C)CC(C)C(=NO)C(C)C(O)C(C)(O)C(CC)OC(=O)C(C)C(=O)C(C)C1OC1OC(C)CC(N(C)C)C1O (stereo not shown) [Example 2] and print it.
1.56 µg/mL

Retrieve MIC measured for C=CCOC1(C)CC(C)C(=O)C(C)C(O)C(C)(O)C(CC)OC(=O)C(C)C(=O)C(C)C1OC1OC(C)CC(N(C)C)C1O (stereo not shown) [Example 1] and print it.
6.2 µg/mL

Retrieve MIC measured for CCC1OC(=O)C(C)C(=O)C(C)C(OC2OC(C)CC(N(C)C)C2OC(C)=O)C(C)(OCC=Cc2cnc3ccccc3c2)CC(C)C(=O)C(C)C2NC(=O)OC12C (stereo not shown) [Example 198] and print it.
≤ 0.005 µg/mL

Retrieve MIC measured for CC[C@H]1OC(=O)[C@H](C)C(=O)[C@H](C)[C@@H](O[C@@H]2O[C@H](C)C[C@H](N(C)C)[C@H]2O)[C@@](C)(OCC=Cc2cnc3ccccc3c2)C[C@@H](C)C(=O)[C@H](C)[C@H]2N(C)C(=O)O[C@]12C [Example 180] and print it.
0.05 µg/mL

Retrieve MIC measured for CC[C@H]1OC(=O)[C@H](C)C(=O)[C@H](C)[C@@H](O[C@@H]2O[C@H](C)C[C@H](N(C)C)[C@H]2O)[C@@](C)(OCCCc2cnc3ccccc3c2)C[C@@H](C)C2=NCCN3C(=O)O[C@@]1(C)[C@H]3[C@H]2C [Example 171] and print it.
0.02 µg/mL

---

System: up to 32 different microorganisms
Experiment: in vitro antibacterial activity (MIC), agar dilution on Brain Heart Infusion (BHI) agar with Steers replicator
Format: cell-based
Settings: organism code HH; unit assumed
endpoint label: MIC (µg/mL)
The response must be a number in µg/mL with no trailing unit.

Some compounds with known MIC results, for comparison:
CC[C@H]1OC(=O)[C@H](C)C(=O)[C@H](C)[C@@H](O[C@@H]2O[C@H](C)C[C@H](N(C)C)[C@H]2O)[C@@](C)(OCC2COC(C)(C)O2)C[C@@H](C)C(=O)[C@H](C)[C@H]2NC(=O)O[C@@]21C (stereo partly drawn) : 6.2
CC[C@H]1OC(=O)[C@H](C)C(=O)[C@H](C)[C@@H](O[C@@H]2O[C@H](C)C[C@H](N(C)C)[C@H]2O)[C@@](C)(OCC#Cc2ccc3ccccc3c2)C[C@@H](C)C(=O)[C@H](C)[C@H]2NC(=O)O[C@@]21C : 0.1

From here, focus on the item given below.
Retrieve MIC measured for CCC1OC(=O)C(C)C(=O)C(C)C(OC2OC(C)CC(N(C)C)C2O)C(C)(OCC=Cc2cc(Cl)cc(Cl)c2)CC(C)C(=O)C(C)C2NC(=O)OC12C (stereo not drawn) and print it.
0.2
